Reported inhibition values are given for each entry in this list.
target: Adenosine receptor A2a (Homo sapiens, UniProt P29274); assay: Displacement of [3H]CGS-21680 from human adenosine A2A receptor expressed in CHO cells at 10 uM; assay type: cell-based
Sequence (P29274 whole entry): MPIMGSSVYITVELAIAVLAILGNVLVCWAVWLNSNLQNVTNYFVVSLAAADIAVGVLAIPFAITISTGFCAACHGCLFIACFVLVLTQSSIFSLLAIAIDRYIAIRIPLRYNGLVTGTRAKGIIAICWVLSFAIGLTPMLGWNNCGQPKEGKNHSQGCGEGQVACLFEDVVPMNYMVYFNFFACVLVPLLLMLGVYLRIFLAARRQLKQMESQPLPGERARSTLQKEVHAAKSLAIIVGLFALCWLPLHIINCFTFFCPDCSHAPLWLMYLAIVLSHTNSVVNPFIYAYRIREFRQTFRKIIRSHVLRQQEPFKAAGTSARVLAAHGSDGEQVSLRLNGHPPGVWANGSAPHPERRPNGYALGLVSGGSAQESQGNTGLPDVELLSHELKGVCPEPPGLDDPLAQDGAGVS
parameter measured: inhibition (%)

# given smiles, parameter measured, unit of measure, obs value
records = [
    ("CN(C)C(=O)[C@H]1S[C@@H](n2cnc3c(N(C)C)nc(Cl)nc32)[C@H](O)[C@@H]1O", "inhibition", "%", -2),
    ("CN(C)C(=O)[C@H]1S[C@@H](n2cnc3c(NCC4CC4)nc(Cl)nc32)[C@H](O)[C@@H]1O", "inhibition", "%", 0),
    ("COCCNc1nc(Cl)nc2c1ncn2[C@@H]1S[C@H](C(=O)N(C)C)[C@@H](O)[C@H]1O", "inhibition", "%", 1),
]

----------
target: Adenosine receptor A1 (Homo sapiens, UniProt P30542)
pKi: −log10 of the molar value.

# given smiles, pKi
rows = [
    ("CN(C)C(=O)[C@H]1S[C@@H](n2cnc3c(NC4CCC4)nc(Cl)nc32)[C@H](O)[C@@H]1O", 6.46),
]

----------
target: Adenosine receptor A1 (Homo sapiens) (UniProt P30542); assay: Displacement of [3H]CCPA from human adenosine A1 receptor expressed in CHO cells at 10 uM; format: cell-based
Sequence (P30542 whole entry): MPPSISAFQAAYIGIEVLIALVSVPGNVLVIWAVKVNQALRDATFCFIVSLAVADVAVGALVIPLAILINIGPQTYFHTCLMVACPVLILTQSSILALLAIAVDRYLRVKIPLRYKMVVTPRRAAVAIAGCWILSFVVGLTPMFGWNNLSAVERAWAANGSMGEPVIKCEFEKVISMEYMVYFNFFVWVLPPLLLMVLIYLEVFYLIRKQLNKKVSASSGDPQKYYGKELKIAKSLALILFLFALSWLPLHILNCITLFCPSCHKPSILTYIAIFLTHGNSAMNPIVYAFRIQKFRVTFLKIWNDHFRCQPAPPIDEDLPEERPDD

# given smiles, test system, inhibition (%)
records = [
    ("CN(C)C(=O)[C@H]1S[C@@H](n2cnc3c(NCc4cccc(Cl)c4)nc(Cl)nc32)[C@H](O)[C@@H]1O", "Adenosine receptor A1 (Homo sapiens) (UniProt P30542)", 10),
    ("CCN(C(=O)[C@H]1S[C@@H](n2cnc3c(NCc4cccc(I)c4)nc(Cl)nc32)[C@H](O)[C@@H]1O)c1ccccc1", "Adenosine receptor A1 (Homo sapiens) (UniProt P30542)", 18),
    ("CN(C)C(=O)[C@H]1S[C@@H](n2cnc3c(N(C)C)nc(Cl)nc32)[C@H](O)[C@@H]1O", "Adenosine receptor A1 (Homo sapiens) (UniProt P30542)", 8),
    ("CN(C)C(=O)[C@H]1S[C@@H](n2cnc3c(NC4CCCC4)nc(Cl)nc32)[C@H](O)[C@@H]1O", "Adenosine receptor A1 (Homo sapiens) (UniProt P30542)", 18),
    ("O=C([C@H]1S[C@@H](n2cnc3c(NCc4cccc(I)c4)nc(Cl)nc32)[C@H](O)[C@@H]1O)N1CCCC1", "Adenosine receptor A1 (Homo sapiens) (UniProt P30542)", 20),
    ("O=C([C@H]1S[C@@H](n2cnc3c(NCc4cccc(I)c4)nc(Cl)nc32)[C@H](O)[C@@H]1O)N1CCC(O)CC1", "Adenosine receptor A1 (Homo sapiens) (UniProt P30542)", 16),
    ("CCCN(C)C(=O)[C@H]1S[C@@H](n2cnc3c(NCc4cccc(I)c4)nc(Cl)nc32)[C@H](O)[C@@H]1O", "Adenosine receptor A1 (Homo sapiens) (UniProt P30542)", 50),
]

----------
target: UniProt:P29274; assay: Displacement of [3H]CGS-21680 from human adenosine A2A receptor expressed in CHO cells at 10 uM; format: cell-based
Reported inhibition values are given for each entry in this list.

# given smiles, inhibition (%)
records = [
    ("CN(C)C(=O)[C@H]1S[C@@H](n2cnc3c(NCc4cccc(Cl)c4)nc(Cl)nc32)[C@H](O)[C@@H]1O", -1),
    ("O=C([C@H]1S[C@@H](n2cnc3c(NCc4cccc(I)c4)nc(Cl)nc32)[C@H](O)[C@@H]1O)N1CCCCC1", 7),
    ("CN(C)C(=O)[C@H]1S[C@@H](n2cnc3c(NC4CC4)nc(Cl)nc32)[C@H](O)[C@@H]1O", -8),
    ("CN(C)C(=O)[C@H]1S[C@@H](n2cnc3c(NCc4cccc(Br)c4)nc(Cl)nc32)[C@H](O)[C@@H]1O", 7),
    ("CCCN(C)C(=O)[C@H]1S[C@@H](n2cnc3c(NCc4cccc(I)c4)nc(Cl)nc32)[C@H](O)[C@@H]1O", 5),
    ("CN(C)C(=O)[C@H]1S[C@@H](n2cnc3c(NC4CCCC4)nc(Cl)nc32)[C@H](O)[C@@H]1O", 4),
    ("CN(C)C(=O)[C@H]1S[C@@H](n2cnc3c(NC4CCC4)nc(Cl)nc32)[C@H](O)[C@@H]1O", 10),
    ("O=C([C@H]1S[C@@H](n2cnc3c(NCc4cccc(I)c4)nc(Cl)nc32)[C@H](O)[C@@H]1O)N1CCC(O)CC1", 10),
]

----------
target: Adenosine receptor A2a (Homo sapiens); test: Displacement of [3H]CGS-21680 from human adenosine A2A receptor expressed in CHO cells at 10 uM; format: cell-based
Reported inhibition values are given for each entry in this list.
parameter measured: inhibition

# given smiles, obs value
measured = [
    ("CCN(C(=O)[C@H]1S[C@@H](n2cnc3c(NCc4cccc(I)c4)nc(Cl)nc32)[C@H](O)[C@@H]1O)c1ccccc1", "8%"),
    ("O=C([C@H]1S[C@@H](n2cnc3c(NCc4cccc(I)c4)nc(Cl)nc32)[C@H](O)[C@@H]1O)N1CCC1", "12%"),
    ("O=C([C@H]1S[C@@H](n2cnc3c(NCc4cccc(I)c4)nc(Cl)nc32)[C@H](O)[C@@H]1O)N1CCSCC1", "15%"),
    ("CN(C)C(=O)[C@H]1S[C@@H](n2cnc3c(NCc4cccc(F)c4)nc(Cl)nc32)[C@H](O)[C@@H]1O", "1%"),
    ("CN(CCO)C(=O)[C@H]1S[C@@H](n2cnc3c(NCc4cccc(I)c4)nc(Cl)nc32)[C@H](O)[C@@H]1O", "13%"),
    ("O=C([C@H]1S[C@@H](n2cnc3c(NCc4cccc(I)c4)nc(Cl)nc32)[C@H](O)[C@@H]1O)N1CCCC1", "14%"),
    ("CN1CCN(C(=O)[C@H]2S[C@@H](n3cnc4c(NCc5cccc(I)c5)nc(Cl)nc43)[C@H](O)[C@@H]2O)CC1", "-7%"),
]

----------
target: Adenosine receptor A1 (Homo sapiens) (UniProt P30542); test: Displacement of [3H]CCPA from human adenosine A1 receptor expressed in CHO cells at 10 uM; format: cell-based

# given smiles, unit of measure, inhibition
data = [
    ("O=C([C@H]1S[C@@H](n2cnc3c(NCc4cccc(I)c4)nc(Cl)nc32)[C@H](O)[C@@H]1O)N1CCC1", "%", 8),
    ("CN(C)C(=O)[C@H]1S[C@@H](n2cnc3c(NC4CC4)nc(Cl)nc32)[C@H](O)[C@@H]1O", "%", 7),
    ("COCCNc1nc(Cl)nc2c1ncn2[C@@H]1S[C@H](C(=O)N(C)C)[C@@H](O)[C@H]1O", "%", -7),
    ("CN1CCN(C(=O)[C@H]2S[C@@H](n3cnc4c(NCc5cccc(I)c5)nc(Cl)nc43)[C@H](O)[C@@H]2O)CC1", "%", 19),
    ("O=C([C@H]1S[C@@H](n2cnc3c(NCc4cccc(I)c4)nc(Cl)nc32)[C@H](O)[C@@H]1O)N1CCSCC1", "%", 19),
    ("O=C([C@H]1S[C@@H](n2cnc3c(NCc4cccc(I)c4)nc(Cl)nc32)[C@H](O)[C@@H]1O)N1CCCCC1", "%", 27),
    ("CN(C)C(=O)[C@H]1S[C@@H](n2cnc3c(NCc4cccc(F)c4)nc(Cl)nc32)[C@H](O)[C@@H]1O", "%", 16),
    ("CN(C)C(=O)[C@H]1S[C@@H](n2cnc3c(NCc4cccc(Br)c4)nc(Cl)nc32)[C@H](O)[C@@H]1O", "%", 37),
]

----------
pKi: −log10 of the molar value.
Measured pKi (Adenosine receptor A3 (Homo sapiens, UniProt P0DMS8))
parameter measured: pKi

# given smiles, parameter measured, obs value
rows = [
    ("CN1CCN(C(=O)[C@H]2S[C@@H](n3cnc4c(NCc5cccc(I)c5)nc(Cl)nc43)[C@H](O)[C@@H]2O)CC1", "pKi", 6.18),
    ("O=C([C@H]1S[C@@H](n2cnc3c(NCc4cccc(I)c4)nc(Cl)nc32)[C@H](O)[C@@H]1O)N1CCCCC1", "pKi", 6.25),
    ("CN(C)C(=O)[C@H]1S[C@@H](n2cnc3c(NC4CCC4)nc(Cl)nc32)[C@H](O)[C@@H]1O", "pKi", 6.94),
    ("O=C([C@H]1S[C@@H](n2cnc3c(NCc4cccc(I)c4)nc(Cl)nc32)[C@H](O)[C@@H]1O)N1CCC1", "pKi", 7.36),
    ("CN(CCO)C(=O)[C@H]1S[C@@H](n2cnc3c(NCc4cccc(I)c4)nc(Cl)nc32)[C@H](O)[C@@H]1O", "pKi", 6.90),
    ("CCN(C(=O)[C@H]1S[C@@H](n2cnc3c(NCc4cccc(I)c4)nc(Cl)nc32)[C@H](O)[C@@H]1O)c1ccccc1", "pKi", 6.40),
    ("O=C([C@H]1S[C@@H](n2cnc3c(NCc4cccc(I)c4)nc(Cl)nc32)[C@H](O)[C@@H]1O)N1CCC(O)CC1", "pKi", 5.82),
    ("CN(C)C(=O)[C@H]1S[C@@H](n2cnc3c(NCc4cccc(Cl)c4)nc(Cl)nc32)[C@H](O)[C@@H]1O", "pKi", 7.67),
    ("CN(C)C(=O)[C@H]1S[C@@H](n2cnc3c(NC4CCCC4)nc(Cl)nc32)[C@H](O)[C@@H]1O", "pKi", 6.08),
    ("CN(C)C(=O)[C@H]1S[C@@H](n2cnc3c(N(C)C)nc(Cl)nc32)[C@H](O)[C@@H]1O", "pKi", 6.87),
]
